system: Fyn (UniProt P06241)
Sequence (P06241 whole entry, looked up): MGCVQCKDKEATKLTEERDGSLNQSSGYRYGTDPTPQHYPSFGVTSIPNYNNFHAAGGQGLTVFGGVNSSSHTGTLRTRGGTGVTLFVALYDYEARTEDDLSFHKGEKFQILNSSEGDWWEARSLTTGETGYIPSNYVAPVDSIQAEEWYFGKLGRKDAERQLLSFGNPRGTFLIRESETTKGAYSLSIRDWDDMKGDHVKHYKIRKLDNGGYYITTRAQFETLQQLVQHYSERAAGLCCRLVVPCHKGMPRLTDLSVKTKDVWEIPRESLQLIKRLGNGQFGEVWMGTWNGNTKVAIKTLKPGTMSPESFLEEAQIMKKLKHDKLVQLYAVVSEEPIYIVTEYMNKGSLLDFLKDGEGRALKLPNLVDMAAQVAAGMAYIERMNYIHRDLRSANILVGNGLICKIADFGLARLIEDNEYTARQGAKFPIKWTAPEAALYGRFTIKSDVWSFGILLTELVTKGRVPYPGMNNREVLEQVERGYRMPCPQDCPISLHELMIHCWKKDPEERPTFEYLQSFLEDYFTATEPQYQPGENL
test-summary: phosphorylation enrichment, bacterial display (enrichment ratio); higher = better substrate or ligand; peptides without Tyr show the background;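 further: 11-residue human phosphosite peptides and single-mutation variants displayed on the E. coli surface, counted by deep sequencing, each peptide's frequency after selection divided by its frequency in the unselected input library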;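 further: frequency after pTyr selection over input frequency; kinase dosed for 20-30% of maximal phosphorylation in three min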
endpoint: phosphorylation enrichment
Reply: number alone, nothing else.

Exercise: Identify measured phosphorylation enrichment associated with SCTFTYLLGDR [ETHE1_Y38]
Solution: 0.491

Exercise: Identify measured phosphorylation enrichment associated with QYNIQYSSSAA [ERBB2IP_Y981]
Solution: 0.702

Exercise: Identify measured phosphorylation enrichment associated with RLDRSYSFSFS [PEAR1_Y890_YF]
Solution: 0.702

Exercise: Identify measured phosphorylation enrichment associated with PECEWYKNGVK [TTN_Y2112]
Solution: 0.692

Exercise: Identify measured phosphorylation enrichment associated with CLMILYRLKER [PTPRR_Y249]
Solution: 0.5

Attribution: the supplement of paper PMC10065799
